// data source = PubChem BioAssay AID2060493

# Tested on: 616215-338-R-J1-PDC tumor spheroids, viability
# experiment-description: Anticancer human tumor 616215-338-R-J1-PDC patient-derived colon adenocarcinoma cell line growth inhibition [GQUAD]
# study-conditions: curve of compound; spheroids with HUVEC and MSC
pIC50: −log10 of the molar value.
reported-endpoint: pIC50

Example results:
- Cc1cccc(N(C)C(=O)C2C(O)CCN2c2nc(C)cc(C(F)(F)F)c2C#N)c1 (stereo not drawn): < 5.00
- COc1ncnc(C2CC2)c1-c1ncc2cnn(Cc3ccc(-c4nc(C(F)(F)F)cn4C(C)C)cc3)c2n1: < 5.00

Moving on to another compound below.
Form field: reported pIC50 of `O=C(c1cc(Cc2n[nH]c(=O)c3ccccc23)ccc1F)N1CCN(C(=O)C2CC2)CC1`
< 5.00

====

# Test system: 616215-338-R-J1-PDC tumor spheroids, viability
# experiment-description: Anticancer human tumor 616215-338-R-J1-PDC cell line growth inhibition [GQUAD];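 also: spheroids exposed to agents for 7 days before readout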;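 as to viability, T/C: percent viability relative to DMSO vehicle control wells taken as 100%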
# study-conditions: second compound 0.1 µM; first compound 0.1 µM; stronger effect = lower value; spheroids with HUVEC and MSC
reported-endpoint: viability, T/C (%)
Numbers only, in %.

Example results:
- O=C(c1cc(Cc2n[nH]c(=O)c3ccccc23)ccc1F)N1CCN(C(=O)C2CC2)CC1 + CN(C)c1ccc(Nc2c3ccc(NC(=O)CCN4CCCC4)cc3nc3cc(NC(=O)CCN4CCCC4)ccc23)cc1: 102
- CC(C)(O)C1CCC(Nc2ccc3ncc(-c4cccc(C(F)(F)F)c4)n3n2)CC1 (configuration not stated) + Cc1cnc(CNC(=O)c2c(=O)c3ccc(N4CCCN(C)CC4)nc3n3c2sc2ccccc23)cn1: 73.2
- Cc1cccc(N(C)C(=O)C2C(O)CCN2c2nc(C)cc(C(F)(F)F)c2C#N)c1 (configuration not stated) + Cc1[nH]c2ccc(F)cc2c1-c1nc2c3cccnc3c3ncccc3c2[nH]1: 93.8
- CC1COCCN1c1cc(C2(S(C)(=N)=O)CC2)nc(-c2ccnc3[nH]ccc23)n1 (configuration not stated) + CN(C)c1ccc(Nc2c3ccc(NC(=O)CCN4CCCC4)cc3nc3cc(NC(=O)CCN4CCCC4)ccc23)cc1: 97
- O=C(NO)c1cnc(N2CCN(S(=O)(=O)c3ccc4ccccc4c3)CC2)nc1 + Cc1cnc(CNC(=O)c2c(=O)c3ccc(N4CCCN(C)CC4)nc3n3c2sc2ccccc23)cn1: 66.6
- C=CC(=O)N1CCN(c2nc(=O)n(-c3c(C)ccnc3C(C)C)c3nc(-c4c(O)cccc4F)c(F)cc23)C(C)C1 (configuration not stated) + CN(C)c1ccc(Nc2c3ccc(NC(=O)CCN4CCCC4)cc3nc3cc(NC(=O)CCN4CCCC4)ccc23)cc1: 89.6
- CC1COCCN1c1cc(C2(O)CC3CCC(C2)O3)c2cnn(-c3ccn[nH]3)c2n1 (configuration not stated) + Cc1[nH]c2ccc(F)cc2c1-c1nc2c3cccnc3c3ncccc3c2[nH]1: 83.9
- C=CCn1c(=O)c2cnc(Nc3ccc(N4CCN(C)CC4)cc3)nc2n1-c1cccc(C(C)(C)O)n1 + Cc1cnc(CNC(=O)c2c(=O)c3ccc(N4CCCN(C)CC4)nc3n3c2sc2ccccc23)cn1: 55

I need viability, T/C for every entry listed below, if you could help.
1. CC(C)n1c(=O)n(C)c2cnc3cc(F)c(-c4ccc(OCCCN5CCCCC5)nc4)cc3c21 + Cc1[nH]c2ccc(F)cc2c1-c1nc2c3cccnc3c3ncccc3c2[nH]1
2. CCCS(=O)(=O)Nc1ccc(F)c(C(=O)c2c[nH]c3ncc(-c4ccc(Cl)cc4)cc23)c1F + Cc1[nH]c2ccc(F)cc2c1-c1nc2c3cccnc3c3ncccc3c2[nH]1
3. C#Cc1c(F)ccc2cc(O)cc(-c3ncc4c(N5CC6CCC(C5)N6)nc(OCC56CCCN5CC(F)C6)nc4c3F)c12 (configuration not stated) + CN(C)c1ccc(Nc2c3ccc(NC(=O)CCN4CCCC4)cc3nc3cc(NC(=O)CCN4CCCC4)ccc23)cc1
4. O=C(c1cc(Cc2n[nH]c(=O)c3ccccc23)ccc1F)N1CCN(C(=O)C2CC2)CC1 + Cc1cnc(CNC(=O)c2c(=O)c3ccc(N4CCCN(C)CC4)nc3n3c2sc2ccccc23)cn1

[99.6, 107, 105, 69.3]

====

# Test system: 616215-338-R-J1-PDC tumor spheroids, viability
# experiment-description: Anticancer human tumor 616215-338-R-J1-PDC cell line growth inhibition [GQUAD];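 also: spheroids exposed to agents for 7 days before readout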
# study-conditions: curve of first compound; second compound 0.0316 µM; spheroids with HUVEC and MSC
reported-endpoint: IC50

- Cc1cccc(N(C)C(=O)C2C(O)CCN2c2nc(C)cc(C(F)(F)F)c2C#N)c1 (stereo unspecified) + CN(C)c1ccc(Nc2c3ccc(NC(=O)CCN4CCCC4)cc3nc3cc(NC(=O)CCN4CCCC4)ccc23)cc1: > 10000 nM
- Cc1cccc(N(C)C(=O)C2C(O)CCN2c2nc(C)cc(C(F)(F)F)c2C#N)c1 (stereo unspecified) + Cc1cnc(CNC(=O)c2c(=O)c3ccc(N4CCCN(C)CC4)nc3n3c2sc2ccccc23)cn1: > 10000 nM
- Cn1ncnc1[C@H]1c2n[nH]c(=O)c3cc(F)cc(c23)N[C@@H]1c1ccc(F)cc1 + Cc1[nH]c2ccc(F)cc2c1-c1nc2c3cccnc3c3ncccc3c2[nH]1: > 316 nM
- C#Cc1c(F)ccc2cc(O)cc(-c3ncc4c(N5CC6CCC(C5)N6)nc(OCC56CCCN5CC(F)C6)nc4c3F)c12 (stereo unspecified) + Cc1[nH]c2ccc(F)cc2c1-c1nc2c3cccnc3c3ncccc3c2[nH]1: > 10000 nM
- COc1ccc([C@@H](O)c2cc(-c3ncnc4cc(N5CCOCC5)ccc34)c(F)cc2Cl)nn1 + CN(C)c1ccc(Nc2c3ccc(NC(=O)CCN4CCCC4)cc3nc3cc(NC(=O)CCN4CCCC4)ccc23)cc1: > 10000 nM

I need IC50 for every entry listed below, if you could help.
1. Cc1cccc(N(C)C(=O)C2C(O)CCN2c2nc(C)cc(C(F)(F)F)c2C#N)c1 (stereo unspecified) + Cc1[nH]c2ccc(F)cc2c1-c1nc2c3cccnc3c3ncccc3c2[nH]1
2. CC(C)n1c(=O)n(C)c2cnc3cc(F)c(-c4ccc(OCCCN5CCCCC5)nc4)cc3c21 + Cc1[nH]c2ccc(F)cc2c1-c1nc2c3cccnc3c3ncccc3c2[nH]1
3. Cn1ncnc1[C@H]1c2n[nH]c(=O)c3cc(F)cc(c23)N[C@@H]1c1ccc(F)cc1 + Cc1cnc(CNC(=O)c2c(=O)c3ccc(N4CCCN(C)CC4)nc3n3c2sc2ccccc23)cn1

> 10000 nM
> 10000 nM
> 316 nM

I need IC50 for every entry listed below, if you could help.
1. CC1COCCN1c1cc(C2(O)CC3CCC(C2)O3)c2cnn(-c3ccn[nH]3)c2n1 (stereo unspecified) + CN(C)c1ccc(Nc2c3ccc(NC(=O)CCN4CCCC4)cc3nc3cc(NC(=O)CCN4CCCC4)ccc23)cc1
2. C=CC(=O)N1CCN(c2nc(=O)n(-c3c(C)ccnc3C(C)C)c3nc(-c4c(O)cccc4F)c(F)cc23)C(C)C1 (stereo unspecified) + CN(C)c1ccc(Nc2c3ccc(NC(=O)CCN4CCCC4)cc3nc3cc(NC(=O)CCN4CCCC4)ccc23)cc1
3. COc1cc(C2c3cc4c(cc3C(OC3OC5COC(C)OC5C(O)C3O)C3COC(=O)C23)OCO4)cc(OC)c1O (stereo unspecified) + Cc1[nH]c2ccc(F)cc2c1-c1nc2c3cccnc3c3ncccc3c2[nH]1
4. CC1COCCN1c1cc(C2(O)CC3CCC(C2)O3)c2cnn(-c3ccn[nH]3)c2n1 (stereo unspecified) + Cc1cnc(CNC(=O)c2c(=O)c3ccc(N4CCCN(C)CC4)nc3n3c2sc2ccccc23)cn1
5. Nc1ccn(C2OC(CO)C(O)C2(F)F)c(=O)n1 (stereo unspecified) + Cc1[nH]c2ccc(F)cc2c1-c1nc2c3cccnc3c3ncccc3c2[nH]1

1: 184 nM; 2: > 10000 nM; 3: 669 nM; 4: 107 nM; 5: < 31.6 nM

I need IC50 for every entry listed below, if you could help.
1. Nc1ccn(C2OC(CO)C(O)C2(F)F)c(=O)n1 (stereo unspecified) + CN(C)c1ccc(Nc2c3ccc(NC(=O)CCN4CCCC4)cc3nc3cc(NC(=O)CCN4CCCC4)ccc23)cc1
2. CCCS(=O)(=O)Nc1ccc(F)c(C(=O)c2c[nH]c3ncc(-c4ccc(Cl)cc4)cc23)c1F + Cc1cnc(CNC(=O)c2c(=O)c3ccc(N4CCCN(C)CC4)nc3n3c2sc2ccccc23)cn1
3. COc1ccc([C@@H](O)c2cc(-c3ncnc4cc(N5CCOCC5)ccc34)c(F)cc2Cl)nn1 + Cc1cnc(CNC(=O)c2c(=O)c3ccc(N4CCCN(C)CC4)nc3n3c2sc2ccccc23)cn1

1: < 31.6 nM; 2: 5390 nM; 3: 798 nM

====

# Tested on: 616215-338-R-J1-PDC tumor spheroids, viability
# experiment-description: Anticancer human tumor 616215-338-R-J1-PDC cell line growth inhibition [GQUAD];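 also: spheroids exposed to agents for 7 days before readout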;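 as to viability, T/C: percent viability relative to DMSO vehicle control wells taken as 100%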
# study-conditions: second compound 10 µM; first compound 0.0316 µM; stronger effect = lower value; spheroids with HUVEC and MSC
I'd be grateful if you could share measured viability, T/C for these entries.
Answers are plain numbers, in %.

Example results:
- Cc1cccc(N(C)C(=O)C2C(O)CCN2c2nc(C)cc(C(F)(F)F)c2C#N)c1 (centres undefined) + Cc1[nH]c2ccc(F)cc2c1-c1nc2c3cccnc3c3ncccc3c2[nH]1: 108
- Cn1ncnc1[C@H]1c2n[nH]c(=O)c3cc(F)cc(c23)N[C@@H]1c1ccc(F)cc1 + Cc1cnc(CNC(=O)c2c(=O)c3ccc(N4CCCN(C)CC4)nc3n3c2sc2ccccc23)cn1: 35.5
- Cc1[nH]c2ccccc2c1CCNCc1ccc(/C=C/C(=O)NO)cc1 + CN(C)c1ccc(Nc2c3ccc(NC(=O)CCN4CCCC4)cc3nc3cc(NC(=O)CCN4CCCC4)ccc23)cc1: 70.3

I need viability, T/C for every entry listed below, if you could help.
1. C=CCn1c(=O)c2cnc(Nc3ccc(N4CCN(C)CC4)cc3)nc2n1-c1cccc(C(C)(C)O)n1 + Cc1[nH]c2ccc(F)cc2c1-c1nc2c3cccnc3c3ncccc3c2[nH]1
2. CC(C)(O)C1CCC(Nc2ccc3ncc(-c4cccc(C(F)(F)F)c4)n3n2)CC1 (centres undefined) + Cc1cnc(CNC(=O)c2c(=O)c3ccc(N4CCCN(C)CC4)nc3n3c2sc2ccccc23)cn1
3. CC1COCCN1c1cc(C2(O)CC3CCC(C2)O3)c2cnn(-c3ccn[nH]3)c2n1 (centres undefined) + Cc1[nH]c2ccc(F)cc2c1-c1nc2c3cccnc3c3ncccc3c2[nH]1
4. CC(=O)O[C@H]1C(=O)[C@@]2(C)[C@H]([C@H](OC(=O)c3ccccc3)[C@]3(O)C[C@H](OC(=O)[C@H](O)[C@@H](NC(=O)c4ccccc4)c4ccccc4)C(C)=C1C3(C)C)[C@]1(OC(C)=O)CO[C@@H]1C[C@@H]2O + Cc1cnc(CNC(=O)c2c(=O)c3ccc(N4CCCN(C)CC4)nc3n3c2sc2ccccc23)cn1
5. O=c1[nH]cc(F)c(=O)[nH]1 + CN(C)c1ccc(Nc2c3ccc(NC(=O)CCN4CCCC4)cc3nc3cc(NC(=O)CCN4CCCC4)ccc23)cc1
6. Nc1ccn(C2OC(CO)C(O)C2(F)F)c(=O)n1 (centres undefined) + Cc1cnc(CNC(=O)c2c(=O)c3ccc(N4CCCN(C)CC4)nc3n3c2sc2ccccc23)cn1

1: 95.3; 2: 19.6; 3: 88.4; 4: 25; 5: 87.6; 6: 28.4
